Tested on: NCI-H460
Test: NCI tumour cell line growth inhibition, 48 h
The source made the active and inactive calls. Cut-off read from the data, not from the text of the source: active = GI50 up to about 1.1 µM and inactive = higher.
parameter measured: GI50

{"compound": "O=C(Cc1nc2ccccc2s1)C(=O)Nc1ccccc1C(F)(F)F", "tested system": "NCI-H460", "GI50": "> 100 µM (inactive)"}
{"compound": "O=c1c2cc([N+](=O)[O-])ccc2[nH]n1Cc1ccccn1", "tested system": "NCI-H460", "GI50": "> 100 µM (inactive)"}

What does the data say about its GI50? Entry: `CCOC(=O)c1csc(NC(=O)CN2CCCCC2)n1`
> 100 µM (inactive)

What does the data say about its GI50? Entry: `O=C(Oc1cccnc1)c1cc2cc(CCl)ccc2oc1=O`
31 µM (inactive)

What does the data say about its GI50? Entry: CC(C)c1cccc(C(C)C)c1NC(=O)C(=O)C(C(=O)c1ccc2ccccc2c1)C1OC(=O)c2ccccc21 (stereo not given)
> 100 µM (inactive)
